# Test system: HSALR mice
# assay_remarks: White blood cell differential count
# Assay type: in vivo, mouse
# test_parameters: mouse, in vivo, iv, 9.2 mg/kg
measurement_type: Lymphocytes

In the examples that follow, each entry is paired with its recorded Lymphocytes.
9b2KC-218 (antisense ACAUGGUUAGAUCAAGCACAA; all phosphorodiamidate morpholino (PMO), T or U not given here; Pip9b2KC peptide conjugated) | 59,60 ± 3,130%
9b2-23b (antisense GGUAAUCCCUGGCAAUGUGAU; all phosphorodiamidate morpholino (PMO), T or U not given here; Pip9b2 peptide conjugated) | 65,40 ± 6,189%
9b2KC-23b (antisense GGUAAUCCCUGGCAAUGUGAU; all phosphorodiamidate morpholino (PMO), T or U not given here; Pip9b2KC peptide conjugated) | 60,25 ± 6,185%
6aKC-23b (antisense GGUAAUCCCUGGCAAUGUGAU; all phosphorodiamidate morpholino (PMO), T or U not given here; Pip6aKC peptide conjugated) | 47,80 ± 12,133%
9b2-218 (antisense ACAUGGUUAGAUCAAGCACAA; all phosphorodiamidate morpholino (PMO), T or U not given here; Pip9b2 peptide conjugated) | 61,60 ± 4,159%

Now, please, on to the next substance.
Inquiry: Record request: Lymphocytes value, item 6aKC-218 (antisense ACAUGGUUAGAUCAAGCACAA; all phosphorodiamidate morpholino (PMO), T or U not given here; Pip6aKC peptide conjugated)
Reply text: 57,20 ± 12,357%
